Examples of molecules with documented viability at 28.5 h, 10 µM follow.
Assay: in vitro
Details: human, hela cells, % viability
The figure you give is taken to be in %; do not add the unit.

Below: 8 molecules and their reported viability at 28.5 h, 10 µM.
| MOLECULE | VALUE_TYPE | SCALE_UNIT | MEASUREMENT |
| --- | --- | --- | --- |
| CNC(=O)CN1CCC[C@@H]2NC(=O)COc3ccccc3C(=O)N[C@@H]3CCOC[C@@H]3C/C=C/C[C@@H]21 | viability at 28.5 h, 10 µM | % | 100 |
| Cc1cc2nc(COC(=O)N3CCOCC3)[nH]c2cc1C | viability at 28.5 h, 10 µM | % | 107 |
| N#Cc1ccc(OCC(=O)Nc2ncccn2)cc1 | viability at 28.5 h, 10 µM | % | 85.4 |
| CC(C)CC(=O)N1CCc2c([nH]c3ccccc23)C12CCN(Cc1ccccc1)C2 (stereo not drawn) | viability at 28.5 h, 10 µM | % | 81.6 |
| Cn1c(CNc2ccccc2[N+](=O)[O-])c(C#N)c2ccccc21 | viability at 28.5 h, 10 µM | % | 98.1 |
| COc1ccc([N+](=O)[O-])cc1NC(=O)Nc1ccc(Cl)c(Cl)c1 | viability at 28.5 h, 10 µM | % | 99.5 |
| COc1ccc(CC(=O)N(C)CCN2CCCCC2)cc1C | viability at 28.5 h, 10 µM | % | 99.3 |
| O=S(=O)(c1ccc(Cl)c(Cl)c1)c1ccc2nccc(N3CCNCC3)c2c1 [CBK036497C] | viability at 28.5 h, 10 µM | % | 84.8 |

Read the next record carefully.
Inquiry: I have this molecule here, Cc1cc(C)nc(SCC(=O)Nc2cc(C(=O)O)cc([N+](=O)[O-])c2)n1 , and I need its recorded viability at 28.5 h, 10 µM.
Reply text: 86.8

---

Test: in vitro
Conditions: human, hela cells, % viability
VALUE_TYPE: viability at 28.5 h, 10 µM (%)
Your answer is read as %, so omit the unit and give the number.

| COMPOUND | viability at 28.5 h, 10 µM [%] |
| --- | --- |
| Cc1nc2ncccn2c1-c1csc(Nc2ccc(S(N)(=O)=O)cc2)n1 [CBK263294B] | 84.8 |
| CC(=O)c1ccc(NC(=O)N[C@H]2CCN3C(=O)[C@H]4CCCN4C(=O)[C@H]23)cc1 | 108 |

Inquiry: Name the reported viability at 28.5 h, 10 µM value associated with the compound O=C(OCc1cc2ccccc2o1)N1CCOCC1
Reply text: 98.1

Inquiry: Can you handle CC(c1cccs1)N(C)C(=O)NC1CCCc2c1cnn2CCO (centres unmarked) next?
Reply text: 113

Inquiry: Then what about the compound O=C(O)CC1(O)C(=O)N(Cc2ccccc2)c2ccccc21 (centres unmarked) ?
Reply text: 104

Inquiry: Next record, please: CC(=O)c1ccc(NC(=O)c2cccc(Cl)c2)cc1
Reply text: 89.3

---

Assay: in vitro
Conditions: human, hela cells, % viability
VALUE_TYPE: viability at 28.5 h, 10 µM (%)
Kindly provide the numeric value in % only, without the unit symbol.

As a guide, the following entries are already answered.
| MOLECULE | SCALE_UNIT | MEASUREMENT |
| --- | --- | --- |
| COCOc1ccc(-c2ncc(OCc3ccc4c(c3)OCO4)nc2N)cc1 | % | 100 |
| CC(NC(=O)CSCc1ccco1)c1ccccc1 (stereo not drawn) | % | 100 |
| CC1C2CCCN2CCN1Cc1cccc(Oc2ccccc2)c1 (stereo not drawn) | % | 94.9 |
| COc1ccc(C(O)CNC(C)C)c2c(C)c(C)oc12 (stereo not drawn) [CBK011885C] | % | 97 |
| Cc1noc(C)c1S(=O)(=O)Nc1ccc2cc(Br)cnc2n1 | % | 93.1 |

Inquiry: Endpoint output: viability at 28.5 h, 10 µM of O=C1CC2(CCC3C(C(=O)NC4CCCC4)C32)Oc2ccccc21 (stereo not drawn) . Value?
Reply text: 97.6

Inquiry: Ok, now Cc1nc(C2CCCN2C(=O)CC2CCCC2)nc2c1CCCN2Cc1ccccn1 (stereo not drawn)
Reply text: 105

Inquiry: // repeat for COc1cccc(-c2ccc(C(=O)NCc3ccccc3SC)c(N3CCN(C(=O)c4ccco4)CC3)n2)c1 and report
Reply text: 94.3

Inquiry: Cool, now COc1ccc(S(=O)(=O)NCCNC(=O)c2ccc(-c3cccc(Cl)c3Cl)nc2NCc2cccnc2)cc1
Reply text: 116
